Each item that follows carries a reported pIC50.
System: production of IL-1β (THP-1 cells)
Assay: inhibition of the production of IL-1β in THP-1 cells stimulated with PMA and polyinosic acid (enzyme immunoassay)
Assay type: cell-based
Details: Homo sapiens, PMA 2 μg/ml and polyinosic acid, 24 hours, read-out: IC50 (concentration to inhibit 50% the IL-1β production)
pIC50: −log10 of the molar value.
ASSAY_METRIC: pIC50

STRUCTURE_SMILES	VALUE_OBSERVED
c1cnc(Nc2ccccc2SSc2ccccc2Nc2ncccn2)nc1	4.47
Nc1ccccc1SSc1ccccc1Nc1ncccn1	5.42
O=[N+]([O-])c1ccc(SSc2ccccc2-c2nc3ccccc3[nH]2)c([N+](=O)[O-])c1	4.47
